System: spontaneously hypertensive male rats (SHR)
method: Antihypertensive activity in spontaneously hypertensive rats
Assay type: in vivo
cond: Rattus norvegicus, po, 30 mg/kg oral, systolic pressure 3 to 4 hr after administration, mean ± SEM of 3 to 4 SHRs, read-out: Blood pressure depression, %
Let's look at some compounds and their measured inhibition in vivo at 30 mg/kg.
Supply the numeric figure in %, leaving out any unit text.

Below, 5 compounds whose answers are already recorded.
compound=FCCCN1CCC(Nc2cccc3cnccc23)CC1 recorded_measurement=41.4
compound="Fc1ccc(CN2CCCC(Nc3ccc4[nH]ncc4c3)C2)cc1 (centres unmarked)" recorded_measurement=35
compound="CCCN[C@H]1CC[C@@H](Nc2ccc3[nH]ncc3c2)CC1 [Example 243 (syn)]" recorded_measurement=26.4
compound="FCCN[C@H]1CC[C@H](Nc2cccc3cnccc23)CC1 [Example 261 (anti)]" recorded_measurement=47.3
compound=c1ccc(CN2CCC(Nc3ccc4[nH]ncc4c3)CC2)cc1 recorded_measurement=18

Determine its reported inhibition in vivo at 30 mg/kg: CCCN[C@H]1CC[C@@H](Nc2cccc3cnccc23)CC1 [Example 260 (syn)]
19.6

Quickly give me recorded inhibition in vivo at 30 mg/kg for N[C@H]1CC[C@H](Nc2ccc3[nH]ncc3c2)CC1 [Example 248 (anti)]
18.8

Give inhibition in vivo at 30 mg/kg for c1cc2[nH]ncc2cc1NC1CCN(CC2CC2)CC1
24.4

All figures here come from patent US7217722B2.
